System: Vero
EXPERIMENT: Inhibition of mammalian Vero cell viability at 6.25 and 62.5 ug/ml by MTT assay
Format: functional, cell-based
CONDITION_DETAILS: Chlorocebus sabaeus
MEASURED_ENDPOINT: IC50

Please review the entries below; each comes with its answer.
# COMPOUND, TARGET_OR_TEST_SYSTEM, IC50
data = [
    ("C/C(=N/NC(=O)c1ccncc1)c1ccc(N/C(S)=N/c2ccc(F)cc2)cc1", "Vero", "> 153 µM"),
    ("COc1ccc(N/C(S)=N\\c2ccc(/C(C)=N\\NC(=O)c3ccncc3)cc2)cc1", "Vero", "> 149 µM"),
]

Reported IC50 for NNC(=O)c1ccncc1 [ISONIAZID] was > 455 µM

These entries and their values trace back to ChEMBL document CHEMBL1149454.
